# MIC listing for each entry below
Tested on: Proteus vulgaris (ATCC 33420)
Structures can show the parent of a compound that is named as a salt.

The examples below pair each entry with its known result.
INSERT INTO measurements (compound, readout_name, measured_value) VALUES
  ('CN[C@@H]1[C@H](O)[C@H](NC)[C@H]2O[C@]3(O)[C@H](O[C@@H]2[C@H]1O)O[C@H](C)C[C@@]3(O)CNCc1ccco1 [compound 8, Trihydrochloride]', 'MIC', '> 200 µg/mL'),
  ('CN[C@@H]1[C@H](O)[C@H](NC)[C@H]2O[C@]3(O)[C@H](O[C@@H]2[C@H]1O)O[C@H](C)C[C@@]3(O)CNCCc1ccc[nH]1', 'MIC', '50 to 100 µg/mL'),
  ('CN[C@@H]1[C@H](O)[C@H](NC)[C@H]2O[C@]3(O)[C@H](O[C@@H]2[C@H]1O)O[C@H](C)C[C@@]3(O)CNCc1nc2ccccc2s1 [compound 34, Trihydrobromide]', 'MIC', '> 200 µg/mL'),
  ('CN[C@@H]1[C@H](O)[C@H](NC)[C@H]2O[C@]3(O)[C@H](O[C@@H]2[C@H]1O)O[C@H](C)C[C@@]3(O)CNCCc1ccc(C)c(C)c1 [compound 55, Trihydrochloride]', 'MIC', '> 200 µg/mL');

input: Which MIC is reported for this compound? CN[C@@H]1[C@H](O)[C@H](NC)[C@H]2O[C@]3(O)[C@H](O[C@@H]2[C@H]1O)O[C@H](C)C[C@@]3(O)CNCc1ccc(C(C)C)cc1 [compound 23, Trihydrochloride]
output: > 200 µg/mL
